# ASSAY PROCEDURE: yeast display, Sf9 membrane polyspecificity reagent, FACS + sequencing; frameworks hold sequencing errors
ASSAY READOUT: polyreactivity (PSR sort gate)

QVPLVESGGGLVQAAGSLRLSCAASGRISLGYAMGWYRQAPGKERELVAAISRGGTNTYYADSVKGRFTISRDNAKNTVYLQMNSLKPEDTAVYYCAARYSWGQGTQVTVSS
high polyreactivity
QVQLVESGGGLVQAGGSLRLSCAASGSTFNTNAMGWYRQAPGKERELVAAITWRTGSTYYADSVKGRFTISRDNAKNTVYLQMNSLKPEDTAVYYCAADYFWYRSGRYHYWGQVTQVTVSS
high polyreactivity

* * *

# ASSAY PROCEDURE: yeast display, Sf9 membrane polyspecificity reagent, FACS + sequencing; frameworks hold sequencing errors
ASSAY READOUT: polyreactivity (PSR sort gate)

QVQLVESGGGLVQAGGSLRLSCAASGSIFGIYVMGWYRPAPGKERELVAGISTRGGSTYYADSVKGRFTISRDNAKNTVYLQMNSLKPEDTAVYYCAAVPASYRYPMYYWGQGTQVTVSS
low polyreactivity
QVQLVESGGGLVQAGGSLRLSCAASGSIFGHYAMGWYRQAPGKERELVAAISYSGGSTYYADSVKGRFTISRDNAKNTVYLQMNILKPEDTAVYYCNADLYDAGSEMDYWGQGTQVTVSS
high polyreactivity
QVQLVESGGGLVQAGGSLRLSCAASGITFIIYVMGWYRQAPGKERELVAAISSTGSTYYADSVKGRFTISRDNAKNTVYLQMNSLKPEDTAVYYCAARGRRSSNGFYYWGQGTQVTVSS
high polyreactivity
QVQLVESVGGLVQAGGSLRLSCGASGSIFVANAMGWYIQAPGKEREFVAAITGSGGSTYYADSVKGRFTISRDNAKNTVYLQMNSLKPEDTAVYYCTGDYTVKFGYWGQGTQVTVSS
low polyreactivity
QVQLVESGGGLVQAGGSLRLTCAASGLTFAGYAMGWYRQAPGKERELVAYITTSGGSTHYADSVKGRFTISRDNAKNTVYLQMNSLKPEDTAVYYCAAEGYPGDNELIGAFDYWGQGTQVTVSS
low polyreactivity
QVQLVESGGGLVQAGGSLRLSCAASGITFSVYAMGWYRQAPGKERELVASISSGGTSTYYADSVKGRFTISRDNAKNNVYLQMNSLKTEDSAVYYCAAYSYYTGDQYSYDYWGQGTQVTVSS
low polyreactivity

Prompt: I would be grateful if you could share the reported polyreactivity (PSR sort gate) for "QVQLVESGGGLVQAGGSLRLSCADSGIIFYVYAMGWYRPAPGKEREWVAAISSGGRTKYADSVKGRFTISRDNAKNTVYLQMNSLKPEDTAVYYCAAKSVRRRLGYWGQGTQVTVSS" .
Completion: high polyreactivity

Prompt: I would be grateful if you could share the reported polyreactivity (PSR sort gate) for "QVQLVESGGGLVQAGGSLRLSCAATGITLYGYFMGWYRQAPGKERELVAAISRSGGSTYYADSVMGRFTISRDNAKNTVYLQMNSLKPEDTAVYYCAKVPRYYYDSEFDYWGQGTQVTVSS" .
Completion: high polyreactivity

* * *

# ASSAY PROCEDURE: yeast display, Sf9 membrane polyspecificity reagent, FACS + sequencing; frameworks hold sequencing errors
ASSAY READOUT: polyreactivity (PSR sort gate)

These solved cases illustrate the format of a correct answer.
QVQLVESGGGLVQAGGSLRLSCAASGSIFLNYAMGWYRQAPGKERELVAAISYRVGRTYYADSVKGRFTISRDNAKNTVYLQMNSLKPVDTAVYYCAADSRSPGNDYWGQGTQVTVSS
high polyreactivity
QVQLVESGGGSVQAGGSLRLSCAASGSIFAQYTMGWYRQAPGKERELVAVISINGVSTYYADSVKGRFTISRDNAKNTVYLQMNSLKPEDTAVYYCNAGISPYEALGYWGQGTQVTVSS
low polyreactivity
QVQLVESGGGLVQAGGSLRLSCAASGFTFVYYVMGLYRQAPGKERELVAAINAGGGSTYYADSVKGRFTISRDNAKNTVYLQMNSLKPEDTAVYYCNARVRVRLGRNWSSYYYWGQGTQVTVST
high polyreactivity
QVQLVESGVGLVQAGGSLRLSCAPSGSTLGYYVMGWYRQAPGKERELVAAITGGGSTDYADSVNGRFTISRDNAKNTVYLQMNSLKPEDTAVYYCAAERTRTGQLFWWGPIYDYWGLGTQVTVSS
low polyreactivity
QVQLVESGGGLVQAGGSLRLSCAASGRTFKYYTMGWYRQAPGKERELVAAISASGGSTYYADSVKGRFTISRDNAKNTVYLQMNSLKPEDTAVYYCAKGANRAIHKQPTRSRLDSWGQGTQVTVSS
high polyreactivity
QVQLVESGGGLVQAGGSLRLSCAASGRTFYSKAMGWYRQAPGKERELVAAISSSGSSTSYADSVKGRFTMSRDNAKNTVYLQMNSLKPEDTAVYYCAARTKRRANRDYWGQGTQVTVSS
high polyreactivity

Prompt: I would be grateful if you could share the reported polyreactivity (PSR sort gate) for "QVQLVDSGGGLVQAGGSLSLSCGASGIIFVSNAMGWYRQAPGKERELVATINWSDDSTYYADSVKGRFTISRDNAKNTVYLQMNSLKPEDTAVYYCYWRQGTQVTVSS" .
Completion: low polyreactivity

Prompt: I would be grateful if you could share the reported polyreactivity (PSR sort gate) for "QVQLVESGGGLVQAGGSLRLSCAASGNTFYGYAMGWNRQAPGKERELVASITLSGDSTYYADSVKGRFTISRDNEKNTVYLQMNSLKPEDTAVYDCAGVYTYPLGYYHYTYDYWGQGTQVTVSS" .
Completion: low polyreactivity

Prompt: I would be grateful if you could share the reported polyreactivity (PSR sort gate) for "QVQLVESGGCLVQAGGRLRLSCAASVRTFRSYAMGWYRQAPGKERELVAAISWSGGSTYYADSVKGRFTISRDNAKNTVYLQMTSLKPEDTAGYYCAAEVYYTYVYILDYWGQGTQVTVSS" .
Completion: high polyreactivity

Prompt: I would be grateful if you could share the reported polyreactivity (PSR sort gate) for "QVQLVESGGGLVQAGGSLRLSCAASGSTSMSYVKGWYRQAPGKERELVASITSSGGSTYYADSVKGLFTISRDNAKNTVYLQMNSLKPEDTAVYYCNARSYIYPFSPTSYYRYYWGQGTQVTVSS" .
Completion: high polyreactivity

Prompt: I would be grateful if you could share the reported polyreactivity (PSR sort gate) for "QVQLVESGGGLVQAGRSLRLTCAASGRIFNPYAMGWYRQAPGKERELVAAISRGGRTYYADSVKGRFTISRDNAKNTVYLQMNSLKPEDTAVYYCNAGRGLREDDYWGQGTQVTVSS" .
Completion: low polyreactivity
